- Test system: RAW264.7
- assay.method.text: Anti-inflammatory activity in mouse RAW264.7 cells assessed as inhibition of LPS-induced NO production
- Assay type: functional, cell-based
readout.kind: IC50 (µM)
Answers are plain numbers, in µM.

Req: Consider the molecule shown here: COc1c(OC/C=C(\C)CCC=C(C)C)ccc2ccc(=O)oc12 [COLLININ] What is its recorded IC50?
Resp: 5.9

* * *

- Test system: Neutrophil
- assay.method.text: Anti-inflammatory activity in human neutrophils assessed as inhibition of fMLP/CB-induced superoxide anion generation
- Type: functional, cell-based
readout.kind: pIC50
One number for each entry, as −log10 of the molar value.

Req: Reported pIC50 for CC(C)=CCOc1c2occc2cc2ccc(=O)oc12 [PENTOSALEN] : what is it?
Resp: 5.77

Values compiled from ChEMBL document CHEMBL4152182.
